# Tested on: Mus musculus
# ASSAY_METHOD_TEXT: Percent increase in mean life span relative to treatment with an equivalent dose of vincristine alone at 25 mg/kg in mice with vincristine-resistantmurine leukemia P388/VCR cells
# Format: functional
The entries below are paired with their reported ILS at 25 mg/kg.
Return type: number; implicit unit %.

Observe how each entry below is paired with its result.
## Task For the molecule COc1ccc(C(C#N)(CCCCCN2CCc3cc4c(cc3C2)OCO4)Sc2ccc(C)cc2)cc1OC (stereo not given) , give its measured ILS at 25 mg/kg value.
## Result 16

## Task For the molecule COc1ccc(C(C#N)(CCCCCN2CCc3ccccc3C2)Sc2ccc(C)cc2)cc1OC (stereo not given) , give its measured ILS at 25 mg/kg value.
## Result 11

## Task For the molecule COc1ccc(C(C#N)(CCCCCCCCCCCN2CCc3cc(OC)c(OC)cc3C2)Sc2ccc(C)cc2)cc1OC (stereo not given) , give its measured ILS at 25 mg/kg value.
## Result 14

New cases:
## Task For the molecule COc1cc2c(cc1OC)CN(CCCCCCC(Sc1ccccc1)c1ccccc1)CC2 (stereo not given) , give its measured ILS at 25 mg/kg value.
## Result 46

## Task For the molecule COc1ccc(C(C#N)(CCCCCN2Cc3cc(OC)c(OC)cc3C2)Sc2ccc(C)cc2)cc1OC (stereo in doubt; 28a) , give its measured ILS at 25 mg/kg value.
## Result 41

====

# ASSAY_METHOD_TEXT: Partition coefficient (logP)
# Assay type: physicochemical
# STATED_CONDITIONS: octanol/water; read-out: logP
Note to self: use Condition met only for logP readings below 6; a reading exactly at 6 still gets Condition not met.

## Task In plain terms, does COc1cc2c(cc1OC)CN(CCCCCC(Sc1ccc(C)cc1)c1ccc(OC(F)(F)F)cc1)CC2 (stereo not drawn) come in under 6 for logP?
## Result Condition not met

## Task In plain terms, does COc1ccc(C(C#N)(CCCCCN2CCc3cc(OC)c(OCCCl)cc3C2)Sc2ccc(C)cc2)cc1OC (stereo not drawn) come in under 6 for logP?
## Result Condition not met

## Task In plain terms, does COc1ccc(C(C#N)(CCCCCCN2CCc3cc(OC)c(OC)cc3C2)Sc2ccc(C)cc2)cc1OC (stereo not drawn) come in under 6 for logP?
## Result Condition not met

## Task In plain terms, does COc1ccc(C(C#N)(CCCCCN2CCc3cc(OC)c(OC)cc3C2)Sc2ccccn2)cc1OC (stereo not drawn) come in under 6 for logP?
## Result Condition met

## Task In plain terms, does COc1ccc(C(C#N)(CCCN2CCc3cc(OC)c(OC)cc3C2)Sc2ccc(C)cc2)cc1OC (stereo not drawn) come in under 6 for logP?
## Result Condition met

New cases:
## Task In plain terms, does COc1cc2c(cc1OC)CN(CCCCCC(Sc1ccc(C)cc1)c1ccc3c(c1)OCO3)CC2 (stereo not drawn) come in under 6 for logP?
## Result Condition not met

## Task In plain terms, does COc1ccc2c(c1)CCN(CCCCCC(C#N)(Sc1ccc(C)cc1)c1ccc(OC)c(OC)c1)C2 (stereo not drawn) come in under 6 for logP?
## Result Condition not met

## Task In plain terms, does COc1ccc(C(C#N)(CCCCCN2CCc3cc(OC)c(OC)cc3C2)SC2CCCCC2)cc1OC (stereo not drawn) come in under 6 for logP?
## Result Condition not met

## Task In plain terms, does COc1ccc(C(C#N)(CCCN2CCc3cc(O)c(O)cc3C2C)Sc2ccc(C)cc2)cc1OC (stereo not drawn) come in under 6 for logP?
## Result Condition met

## Task In plain terms, does COc1ccc(C(CCCN2CCc3cc(OC)c(OC)cc3C2)Sc2ccc(C)cc2)cc1OC (stereo not drawn) come in under 6 for logP?
## Result Condition not met

## Task In plain terms, does COc1ccc(C(CCCCCCN2Cc3cc(OC)c(OC)cc3C2)Sc2ccc(C)cc2)cc1OC (stereo not drawn) come in under 6 for logP?
## Result Condition not met

## Task In plain terms, does COc1ccc(C(CCCCCN2CCc3cc(OC)c(OC)cc3C2)SC(C)(C)C)cc1OC (stereo not drawn) come in under 6 for logP?
## Result Condition not met

====

The entries below are paired with their reported CC50.
# ASSAY_METHOD_TEXT: In vitro concentration at which 50% of human colon carcinoma cells (S1-B1-20) resistant to bisantrene have survived
# Type: ADME, cell-based, S1B1-20
# STATED_CONDITIONS: S1-B1-20 human colon carcinoma cells resistant to bisantrene, read-out: LD50 (the source's name)
Return type: number; implicit unit µM.

Observe how each entry below is paired with its result.
## Task For the molecule COc1ccc(C(CCCCCCN2CCc3cc(OC)c(OC)c(OC)c3C2)Sc2ccc(C)cc2)cc1OC (stereo not drawn) , give its measured CC50 value.
## Result 14

## Task For the molecule COc1ccc(C(C#N)(CCCCCN2CCc3ccccc3C2)Sc2ccc(C)cc2)cc1OC (stereo not drawn) , give its measured CC50 value.
## Result 24.7

## Task For the molecule COc1ccc(C(CCCCCN2CCc3cc(OC)c(OC)cc3C2)Sc2ccc(C)cc2)cc1OC (stereo not drawn) , give its measured CC50 value.
## Result 16.9

## Task For the molecule COc1ccc(C(C#N)(CCCCCN2CCc3cc(OC)c(OCCCl)cc3C2)Sc2ccc(C)cc2)cc1OC (stereo not drawn) , give its measured CC50 value.
## Result 16.8

## Task For the molecule COc1ccc(C(CCCN2CCc3cc(OC)c(OC)cc3C2)Sc2ccc(C)cc2)cc1OC (stereo not drawn) , give its measured CC50 value.
## Result 25.8

New cases:
## Task For the molecule COc1ccc(C(C#N)(CCCN2CCc3cc(OC)c(OC)cc3C2)Sc2ccc(C)cc2)cc1OC (stereo not drawn) , give its measured CC50 value.
## Result 24

## Task For the molecule COc1cc2c(cc1OC)CN(CCCCCCC(Sc1ccccc1)c1ccccc1)CC2 (stereo not drawn) , give its measured CC50 value.
## Result 24.6

## Task For the molecule COc1ccc2c(c1)CCN(CCCCCC(Sc1ccc(C)cc1)c1ccc(OC)c(OC)c1)C2 (stereo not drawn) , give its measured CC50 value.
## Result 22.2

## Task For the molecule COc1cc2c(cc1OC)CN(CCCCCC(Sc1ccc(C)cc1)c1ccc(OC(F)(F)F)cc1)CC2 (stereo not drawn) , give its measured CC50 value.
## Result 16.9

====

# Test system: S1B1-20
# ASSAY_METHOD_TEXT: In vitro concentration required to inhibit tumor activity on subclone of human colon carcinoma cells (S1-B1-20) resistant to bisantrene
# Type: functional, cell-based
# STATED_CONDITIONS: Homo sapiens, S1B1-20
The entries below are paired with their reported pIC50.
Remember the convention: pIC50 equals -log10 of concentration in molar.

Observe how each entry below is paired with its result.
## Task Name the value of pIC50 reported for COc1cc2c(cc1O)CN(CCCCCC(C#N)(Sc1ccc(C)cc1)c1ccc(OC)c(OC)c1)CC2 (stereo not given) when tested on S1B1-20.
## Result 5.51

## Task Name the value of pIC50 reported for COc1cc2c(cc1OC)CN(CCCCCCC(Sc1ccc(C)cc1)c1ccc(OC)c(OCCCl)c1)CC2 (stereo not given) when tested on S1B1-20.
## Result 6.02

New cases:
## Task Name the value of pIC50 reported for COc1ccc(C(CCCCCN2CCc3cc(OC)c(OC)cc3C2)SCc2ccccc2)cc1OC (stereo not given) when tested on S1B1-20.
## Result 5.70

## Task Name the value of pIC50 reported for COc1ccc(C(C#N)(CCCCCN2CCc3cc(OC)c(OCCn4ccnc4)cc3C2)SC2CCCCC2)cc1OC (stereo not given) when tested on S1B1-20.
## Result 6.02

## Task Name the value of pIC50 reported for COc1cc2c(cc1OC)CN(CCCCCC(Sc1ccc(C)cc1)c1ccc(OC(F)(F)F)cc1)CC2 (stereo not given) when tested on S1B1-20.
## Result 5.68

====

# Tested on: S1B1-20
# ASSAY_METHOD_TEXT: In vitro concentration required to inhibit tumor activity on subclone of human colon carcinoma cells (S1-B1-20) resistant to bisantrene
# Type: functional, cell-based
# STATED_CONDITIONS: Homo sapiens, S1B1-20
Entries are sorted into classes by IC50 as follows: label 0: < 0.6 µM; label 1: ≥ 0.6 µM and < 2 µM; label 2: ≥ 2 µM

Here's what some known entries look like.
## Task Hi there! Could you help me figure out the category for COc1ccc2c(c1)CCN(CCCCCC(C#N)(Sc1ccc(C)cc1)c1ccc(OC)c(OC)c1)C2 (stereo not drawn) please?
## Result label 1

## Task Hi there! Could you help me figure out the category for COc1ccc(CCN(C)CCCC(C#N)(c2ccc(OC)c(OC)c2)C(C)C)cc1OC (stereo not drawn) please?
## Result label 2

## Task Hi there! Could you help me figure out the category for COc1ccc(C(C#N)(CCCCCN2CCc3ccccc3C2)Sc2ccc(C)cc2)cc1OC (stereo not drawn) please?
## Result label 2

## Task Hi there! Could you help me figure out the category for COc1ccc(C(CCCCCCN2Cc3cc(OC)c(OC)cc3C2)Sc2ccc(C)cc2)cc1OC (stereo not drawn) please?
## Result label 1

## Task Hi there! Could you help me figure out the category for COc1ccc(C(C#N)(CCCN2CCc3cc(O)c(O)cc3C2C)Sc2ccc(C)cc2)cc1OC (stereo not drawn) please?
## Result label 2

## Task Hi there! Could you help me figure out the category for COc1ccc(C(C#N)(CCN2CCc3cc(OC)c(OC)cc3C2)Sc2ccc(C)cc2)cc1OC (stereo not drawn) please?
## Result label 2

## Task Hi there! Could you help me figure out the category for COc1ccc(C(C#N)(CCCCN2CCc3cc(OC)c(OC)cc3C2)Sc2ccc(C)cc2)cc1OC (stereo not drawn) please?
## Result label 1

## Task Hi there! Could you help me figure out the category for COc1ccc(C(C#N)(CCCCCN2CCc3cc(OC)c(OC)cc3C2)Sc2ccccn2)cc1OC (stereo not drawn) please?
## Result label 2

New cases:
## Task Hi there! Could you help me figure out the category for COc1ccc(C(C#N)(Cc2cccc(CN3CCc4cc(OC)c(OC)cc4C3)c2)Sc2ccc(C)cc2)cc1OC (stereo not drawn) please?
## Result label 2

## Task Hi there! Could you help me figure out the category for COc1ccc(C(C#N)(CCCCCN2CCc3cc(OC)c(OC)cc3C2)Sc2ccc(C)cc2)cc1OC (stereo not drawn) please?
## Result label 0

## Task Hi there! Could you help me figure out the category for COC(=O)C(CCCN1CCc2cc(OC)c(OC)cc2C1)(Sc1ccc(C)cc1)c1ccc(OC)c(OC)c1 (stereo not drawn) please?
## Result label 1

## Task Hi there! Could you help me figure out the category for COc1ccc(C(C#N)(CCCCCN2Cc3cc(OC)c(OCCn4ccnc4)cc3C2)Sc2ccc(C)cc2)cc1OC (stereo not drawn) please?
## Result label 0

## Task Hi there! Could you help me figure out the category for COc1ccc(C(C#N)(CCCCCN2Cc3cc(OC)c(OC)cc3C2)SC2CCCCC2)cc1OC (stereo in doubt; 46) please?
## Result label 0

## Task Hi there! Could you help me figure out the category for COc1ccc(C(C#N)(CCCN2CCc3cc(OC)c(OC)cc3C2)Sc2ccc(C)cc2)cc1OC (stereo not drawn) please?
## Result label 0

## Task Hi there! Could you help me figure out the category for COc1ccc(C(CCCCCCN2CCc3cc(OC)c(OC)c(OC)c3C2)Sc2ccc(C)cc2)cc1OC (stereo not drawn) please?
## Result label 1

## Task Hi there! Could you help me figure out the category for CCCCCSC(CCCCCN1CCc2cc(OC)c(OC)cc2C1)c1ccc(OC)c(OC)c1 (stereo not drawn) please?
## Result label 0

## Task Hi there! Could you help me figure out the category for CCC(CCCCCN1CCc2cc(OC)c(OC)cc2C1)(Sc1ccc(C)cc1)c1ccc(OC)c(OC)c1 (stereo not drawn) please?
## Result label 1

## Task Hi there! Could you help me figure out the category for COc1ccc(CC2c3cc(OC)c(OC)cc3CCN2CCCCCC(C#N)(Sc2ccc(C)cc2)c2ccc(OC)c(OC)c2)cc1OC (stereo not drawn) please?
## Result label 1
